Target or system cytochrome P450 2C8 (Homo sapiens (Human)); recorded quantity IC50.

Before answering, review these 2 worked examples.
> print(dat)
                                   molecule                             system.tested  assay.result
1  CN1C(=O)N(c2cccc(C(F)(F)F)c2)C2=C(C(=O)CC2)[C@H]1c1ccc(C#N)cc1S(=O)(=O)CCO  cytochrome P450 2C8 (Homo sapiens (Human))       > 50 µM
2  CN1C(=O)N(c2cccc(C(F)(F)F)c2)C2=C(C(=O)CC2)[C@H]1c1ccc(C#N)cc1[S+](C)[O-] (single isomer, unassigned)  cytochrome P450 2C8 (Homo sapiens (Human))       > 50 µM

Now for a further molecule.
Please state recorded IC50 (tested on cytochrome P450 2C8 (Homo sapiens (Human))) of CN1C(=O)N(c2cccc(C(F)(F)F)c2)C2=C(C(=O)CC2)C1c1ccc(C#N)cc1CO (single isomer, unassigned)
Sequence (P10632 whole entry, looked up): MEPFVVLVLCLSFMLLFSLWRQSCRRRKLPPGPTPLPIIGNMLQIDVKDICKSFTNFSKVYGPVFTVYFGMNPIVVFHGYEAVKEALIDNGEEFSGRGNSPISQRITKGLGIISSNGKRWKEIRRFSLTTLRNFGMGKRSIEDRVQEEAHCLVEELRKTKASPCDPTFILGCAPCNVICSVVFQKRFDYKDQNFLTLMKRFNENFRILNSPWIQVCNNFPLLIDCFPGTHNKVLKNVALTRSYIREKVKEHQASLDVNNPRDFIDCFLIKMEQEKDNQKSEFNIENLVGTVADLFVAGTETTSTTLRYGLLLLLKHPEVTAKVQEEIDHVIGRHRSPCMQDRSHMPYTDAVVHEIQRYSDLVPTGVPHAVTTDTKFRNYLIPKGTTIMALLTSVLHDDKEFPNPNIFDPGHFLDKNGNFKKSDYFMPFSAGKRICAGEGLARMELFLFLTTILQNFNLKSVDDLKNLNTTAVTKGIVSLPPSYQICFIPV
> 50 µM

Data origin: patent US9475779B2
